target system: Potassium voltage-gated channel subfamily KQT member 2 (Homo sapiens)
assay name: Agonist activity at Kv7.2 (unknown origin) assessed as shifting of voltage dependent activation to more negative potentials by SyncroPatch assay
readout kind: EC50 (µM)
One number for each entry, in µM.

Take a look at these entries with their results.
I have this compound here, Nc1c(NC(=O)OC2CC2)ccc(NCc2ccc(C(F)(F)F)cc2)c1F , and I need its recorded EC50.
3.03

Now this one: [2H]c1cc(NC(=O)OCC)c(N)c(F)c1NCc1ccc(C(F)(F)F)cc1
0.98

More entries:
I have this compound here, CCOC(=O)Nc1ccc(NCc2ccc(F)cc2)cc1N [EZOGABINE] , and I need its recorded EC50.
4.21

* * *

target system: Potassium voltage-gated channel subfamily KQT member 5 (Homo sapiens)
Sequence (Q9NR82 whole entry): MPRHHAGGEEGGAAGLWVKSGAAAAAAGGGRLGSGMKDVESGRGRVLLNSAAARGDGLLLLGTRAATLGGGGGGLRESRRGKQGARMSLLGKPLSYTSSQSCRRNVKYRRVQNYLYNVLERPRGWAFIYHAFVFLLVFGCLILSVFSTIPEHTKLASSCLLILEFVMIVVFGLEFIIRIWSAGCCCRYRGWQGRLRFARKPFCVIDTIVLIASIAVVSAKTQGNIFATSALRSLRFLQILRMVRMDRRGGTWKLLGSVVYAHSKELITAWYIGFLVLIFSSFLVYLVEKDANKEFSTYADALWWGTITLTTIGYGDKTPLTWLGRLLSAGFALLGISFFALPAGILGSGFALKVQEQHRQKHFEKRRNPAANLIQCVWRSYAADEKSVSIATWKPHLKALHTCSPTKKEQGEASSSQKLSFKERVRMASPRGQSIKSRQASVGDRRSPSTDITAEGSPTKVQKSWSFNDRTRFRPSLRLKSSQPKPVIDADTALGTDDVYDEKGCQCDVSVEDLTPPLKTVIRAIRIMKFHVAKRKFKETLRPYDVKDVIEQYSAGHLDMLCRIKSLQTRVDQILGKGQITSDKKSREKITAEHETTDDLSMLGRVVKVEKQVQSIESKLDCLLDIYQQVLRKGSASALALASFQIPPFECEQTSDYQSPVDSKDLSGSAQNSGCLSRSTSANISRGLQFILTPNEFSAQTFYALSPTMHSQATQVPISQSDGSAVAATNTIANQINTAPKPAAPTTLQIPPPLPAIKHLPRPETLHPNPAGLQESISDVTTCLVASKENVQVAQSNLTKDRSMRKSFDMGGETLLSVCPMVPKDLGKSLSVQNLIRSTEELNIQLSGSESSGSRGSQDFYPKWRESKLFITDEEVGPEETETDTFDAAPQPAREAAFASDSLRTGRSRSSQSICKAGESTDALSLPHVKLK
assay name: Agonist activity at Kv7.5 (unknown origin) expressed in CHO cells co-expressing GFP
readout kind: EC50 (nM)
Numbers only, in nM.

I have this compound here, CCOC(=O)Nc1ccc(NCc2ccc(C(F)(F)F)nc2)c(F)c1N , and I need its recorded EC50.
540

Now this one: Nc1c(F)c(NCc2ncc(C(F)(F)F)cc2F)c(F)c(F)c1NC(=O)OC1CC1
3780

Now this one: CCOC(=O)Nc1cc(F)c(NCc2ccc(C(F)(F)F)cc2)c(F)c1N
1060

More entries:
I have this compound here, Nc1c(NC(=O)OC2CC2)ccc(NCc2ccc(C(F)(F)F)cc2)c1F , and I need its recorded EC50.
3780

* * *

Species on record: Homo sapiens
test settings: filed as agonist, dose 5.0 µM
Description: Agonist activity at Kv7.2 W236L mutant (unknown origin) assessed as shifting of voltage dependent activation to more negative potentials at 5 uM by SyncroPatch assay
Kindly state V1/2 for each of the entries shown.
Numbers only, in mV.

Take a look at these entries with their results.
I have this compound here, CCOC(=O)Nc1ccc(NCc2ccc(F)cc2)cc1N [EZOGABINE] , and I need its recorded V1/2.
4.2

Now this one: CCOC(=O)Nc1ccc(NCc2ccc(C(F)(F)F)cc2)c(F)c1N
1.9

Now this one: COc1ccc2c(c1)[C@@H](NC(C)=O)[C@H](C)[C@@H](c1ccccc1)N2C(=O)Nc1ccc(C(F)(F)F)cc1
-2.7

Now this one: CCOC(=O)Nc1ccc2[nH]c(-c3ccc(C(F)(F)F)cc3)cc2c1
-6

Now this one: CC[C@H]1Nc2ccc(OC)cc2[C@@H](NS(C)(=O)=O)[C@@H]1C
2.8

Take each entry in turn and give its V1/2.
1. CC(C)OC(=O)Nc1ccc2[nH]c(-c3ccc(C(F)(F)F)cc3)cc2c1
2. COc1ccc(CNc2cc3ccccc3c(=O)[nH]2)cc1

1: -0.31; 2: 1.3

* * *

target system: Potassium voltage-gated channel subfamily KQT member 2 (Homo sapiens, UniProt O43526)
Sequence (O43526 whole entry): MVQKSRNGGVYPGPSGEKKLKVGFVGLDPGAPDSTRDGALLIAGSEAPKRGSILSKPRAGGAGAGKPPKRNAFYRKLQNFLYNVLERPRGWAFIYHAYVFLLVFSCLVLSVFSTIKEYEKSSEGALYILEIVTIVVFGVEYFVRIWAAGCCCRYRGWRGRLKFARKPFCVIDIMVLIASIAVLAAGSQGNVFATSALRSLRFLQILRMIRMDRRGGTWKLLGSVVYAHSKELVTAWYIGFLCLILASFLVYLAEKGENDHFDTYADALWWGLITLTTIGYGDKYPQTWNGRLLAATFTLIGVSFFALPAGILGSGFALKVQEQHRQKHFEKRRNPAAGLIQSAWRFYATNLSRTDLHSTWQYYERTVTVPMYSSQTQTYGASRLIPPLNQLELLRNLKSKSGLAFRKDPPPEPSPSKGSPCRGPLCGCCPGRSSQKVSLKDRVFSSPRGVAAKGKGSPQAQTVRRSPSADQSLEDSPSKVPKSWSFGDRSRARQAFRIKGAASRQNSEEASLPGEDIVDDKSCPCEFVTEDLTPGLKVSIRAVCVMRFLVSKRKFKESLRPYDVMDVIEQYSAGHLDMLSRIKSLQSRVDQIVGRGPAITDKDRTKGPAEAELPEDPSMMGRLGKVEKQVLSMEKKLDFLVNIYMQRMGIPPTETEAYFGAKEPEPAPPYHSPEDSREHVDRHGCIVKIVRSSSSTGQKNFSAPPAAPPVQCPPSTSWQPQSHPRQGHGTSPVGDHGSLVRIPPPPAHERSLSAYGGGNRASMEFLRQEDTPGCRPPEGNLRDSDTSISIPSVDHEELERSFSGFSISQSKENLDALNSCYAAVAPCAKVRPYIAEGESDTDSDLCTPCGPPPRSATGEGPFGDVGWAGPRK
test settings: filed as agonist, dose 5.0 µM
Description: Agonist activity at Kv7.2 (unknown origin) assessed as shifting of voltage dependent activation to more negative potentials at 5 uM by SyncroPatch assay
readout kind: V1/2 (mV)
Answers are plain numbers, in mV.

Take a look at these entries with their results.
I have this molecule here, O=C(Nc1ccc2[nH]c(-c3ccc(C(F)(F)F)cc3)cc2c1)OC1CC1 , and I need its recorded V1/2.
6.2

Now this one: COc1ccc2c(c1)[C@@H](NC(=O)OCc1ccccc1)[C@H](C)[C@@H](c1ccccc1)N2C(=O)NC(C)C
6.2

Take each entry in turn and give its V1/2.
1. CCOC(=O)Nc1ccc(NCc2ccc(F)cc2)cc1N
2. COc1ccc2c(c1)[C@@H](NC(C)=O)[C@H](C)[C@@H](c1ccccc1)N2C(=O)Nc1ccc(C(F)(F)F)cc1
3. CCOC(=O)Nc1cc(F)c2c(c1N)S(=O)(=O)CC(c1ccccc1)N2 (configuration not stated)
4. CCOC(=O)Nc1ccc2[nH]c(-c3ccc(C(F)(F)F)cc3)cc2c1
5. Nc1c(NC(=O)OC2CC2)ccc(NCc2ccc(C(F)(F)F)cc2)c1F
6. CCOC(=O)Nc1ccc(NCc2ccc(C(F)(F)F)cc2)c(F)c1N

1: -34.3; 2: 10; 3: 4.4; 4: -4.8; 5: -44.9; 6: -48.1
